B1: SPSB1 (parent)
chain: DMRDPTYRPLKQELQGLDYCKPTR

variants of: B1; test: protein stability index of a GFP-peptide fusion (GPS, HEK-293T) (PSI 1-6); higher = more stable; conditions: c terminus: a fixed tail appended;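 also: lentivirally expressed fusions sorted by FACS into six bins by GFP to DsRed ratio, PSI derived from sequencing read proportions per bin multiplied by bin number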
Property: protein stability index
// no unit, no text: just the number

Past entries and their recorded results:
Measured protein stability index of P9S : 3.35

Measured protein stability index of L17C : 3.85

Measured protein stability index of K21V : 3.65

Measured protein stability index of Q12M : 2.23

Measured protein stability index of D18G : 3.81

Measured protein stability index of P22K : 4.35

Measured protein stability index of Q15T : 3.55

Measured protein stability index of R3D : 2.59

Further cases:
Measured protein stability index of K21R : 3.5

Measured protein stability index of G16M : 3.35

Measured protein stability index of P22I : 2.29

Measured protein stability index of L14K : 4.5

Measured protein stability index of D1L : 2.36

Measured protein stability index of C20D : 4.05

Measured protein stability index of L14V : 4.05

Measured protein stability index of Q12F : 2.67

Measured protein stability index of K11R : 3.54

Measured protein stability index of P9N : 3.35

Measured protein stability index of D1F : 3

Measured protein stability index of L17R : 3.8

Measured protein stability index of P9D : 3.28

Measured protein stability index of R24Q : 3.18

Measured protein stability index of L17W : 4.02

Measured protein stability index of D1R : 3.32

Measured protein stability index of K11V : 3.45
